Reference source: patent US20200223889A1

target: human melanocortin 1 receptor (human, UniProt Q01726 1-317); assay: cell-based or functional assay
Sequence (Q01726 whole entry): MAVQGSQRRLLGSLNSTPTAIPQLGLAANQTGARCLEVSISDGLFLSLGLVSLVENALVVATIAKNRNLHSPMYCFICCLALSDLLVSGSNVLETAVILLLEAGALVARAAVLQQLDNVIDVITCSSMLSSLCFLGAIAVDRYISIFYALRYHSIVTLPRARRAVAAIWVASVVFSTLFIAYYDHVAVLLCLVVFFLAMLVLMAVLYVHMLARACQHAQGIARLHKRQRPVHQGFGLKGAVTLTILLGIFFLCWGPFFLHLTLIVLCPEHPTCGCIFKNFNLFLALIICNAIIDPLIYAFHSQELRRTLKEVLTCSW
Positions of bridges follow the written chain, without caps; N, C: chain ends. Non-standard residues stand in square brackets, D forms with d. Lys(Me2) = CN(C)CCCC[C@H](N)C(=O)O; Aib = CC(C)(N)C(=O)O
Exercise: state measured MC1R cAMP EC50 for each of the binders provided.
Reply numerically in nM, unit not repeated.

input: Give the measured MC1R cAMP EC50 of CAHFXWCAHFXW (D-Phe 4, 10; HArg 5, 11; disulphide Cys1-Cys7; head-to-tail amide Cys1-Trp12, also called c[c[Cys-Ala-His-D-Phe-HArg-Trp-Cys]-Ala-His-D-Phe-HArg-Trp]) [Chem. 22] .
output: 0.22

input: # MC1R cAMP EC50 lookup, item cyclo(CAH[dF][Lys(Me2)]WCAH[dF][Lys(Me2)]W) (disulfide 1-7; SMILES C[C@@H]1NC(=O)[C@@H]2CSSC[C@H](NC(=O)[C@H](Cc3c[nH]c4ccccc34)NC(=O)[C@H](CCCCN(C)C)NC(=O)[C@@H](Cc3ccccc3)NC(=O)[C@H](Cc3c[nH]cn3)NC1=O)C(=O)N[C@@H](C)C(=O)N[C@@H](Cc1c[nH]cn1)C(=O)N[C@H](Cc1ccccc1)C(=O)N[C@@H](CCCCN(C)C)C(=O)N[C@@H](Cc1c[nH]c3ccccc13)C(=O)N2, also called c[c[Cys-Ala-His-D-Phe-Lys(Me)2-Trp-Cys]-Ala-His-D-Phe-Lys(Me)2-Trp]) [Chem. 18]
output: 4.22

input: Form field: reported MC1R cAMP EC50 of cyclo(C[Aib]P[dF]RWC[Aib]P[dF]RW) (disulfide 1-7; SMILES CC1(C)NC(=O)[C@@H]2CSSC[C@H](NC(=O)[C@H](Cc3c[nH]c4ccccc34)NC(=O)[C@H](CCCNC(=N)N)NC(=O)[C@@H](Cc3ccccc3)NC(=O)[C@@H]3CCCN3C1=O)C(=O)NC(C)(C)C(=O)N1CCC[C@H]1C(=O)N[C@H](Cc1ccccc1)C(=O)N[C@@H](CCCNC(=N)N)C(=O)N[C@@H](Cc1c[nH]c3ccccc13)C(=O)N2, also called c[c[Cys-Aib-Pro-D-Phe-Arg-Trp-Cys]-Aib-Pro-D-Phe-Arg-Trp]) [Chem. 39]
output: 56.4
